Target of assay: ScBzz1-D2
Method: SPOT peptide array binding signal intensity (averaged, normalized) (arbitrary units (background-subtracted, floor 0; scale differs between SH3 domains)); higher = stronger binding of the SH3 domain to the peptide
This listing pairs binders with measured SPOT peptide array binding signal intensity.

// known answers, use as guide
            binder  readout_value
0  RVTRKRPREPKSTND             10
1  AHFQPQRTAPKPPIS           12.8
2  MAMRPIPPLPTESEY            ≤ 0
3  FYHRPAPKPPVTKKV             39
4  NILKRRPLKLEAPSK            ≤ 0

Param item = `GLRRARYKFPGQQKI` ; retrieve measured SPOT peptide array binding signal intensity.
22

Would you kindly share the measured SPOT peptide array binding signal intensity for `QFDLKMPSKPIHNLK` ?
3.5

Fill blank: measured SPOT peptide array binding signal intensity of the binder `TKIRRRPQQPLTDFT` is ____.
18

# SPOT peptide array binding signal intensity lookup, item `HGKRRAPLLLAKLDV`
27

May I ask what SPOT peptide array binding signal intensity has been recorded for `SSAAPPPPPRRATPE` ?
5

Return reported SPOT peptide array binding signal intensity; argument: `GDHPKGPPPPPPPDE`
31.5

Please look up its SPOT peptide array binding signal intensity: `LASNSPPVYPKRIRH`
19

What value of SPOT peptide array binding signal intensity has been reported for the following binder? `EQEEIAPSLPSRNSI`
1

Dear colleague, I am looking for the recorded SPOT peptide array binding signal intensity of the following binder: `VAPPPLPNRQLPNLD`
≤ 0

# query: SPOT peptide array binding signal intensity of entry `RNNRPVPPPPPMRTT`
113

Cited source: the supplement of paper PMC4466140
